The reported numbers originate from the supplement of paper PMC6522484.

Test system: HCT116
ASSAY_METHOD_TEXT: TCF/Wnt firefly luciferase reporter signal relative to plate median (fraction of plate median); higher = higher Wnt reporter signal
MEASUREMENT_CONTEXT: 10 µM; treatment time 24 h; reporter: TCF4/Wnt
PARAMETER: TCF/Wnt firefly luciferase reporter signal
Form field (numeric): enter value without unit.

Record excerpt, results attached:
{"COMPOUND": "Cc1ccccc1-n1c(Cn2nc(-c3cccc(O)c3)c3c(N)ncnc32)nc2cccc(C)c2c1=O", "NUMERIC_READOUT": 0.841}
{"COMPOUND": "CN1CCN(c2nc(C3=C(c4c[nH]c5ccccc45)C(=O)NC3=O)c3ccccc3n2)CC1 [Sotrastaurin (AEB071)]", "NUMERIC_READOUT": 1.33}

Kindly review the next compound as well.
Input C=CC(=O)N1CCC[C@@H](n2nc(-c3ccc(Oc4ccccc4)cc3)c3c(N)ncnc32)C1 . Output TCF/Wnt firefly luciferase reporter signal: 1.33

* * *

Tested on: DLD1
ASSAY_METHOD_TEXT: TCF/Wnt firefly luciferase reporter signal relative to plate median (fraction of plate median); higher = higher Wnt reporter signal
MEASUREMENT_CONTEXT: 5 µM; treatment time 24 h; reporter: 7TFP
PARAMETER: TCF/Wnt firefly luciferase reporter signal
Form field (numeric): enter value without unit.

{"MOLECULE": "Cn1c(=O)c2c(ncn2CC(O)CO)n(C)c1=O (stereo not given)", "TARGET_OF_ASSAY": "DLD1", "NUMERIC_READOUT": 1.09}
{"MOLECULE": "CC(C)CCCCCCCCC1CC(=O)NC(CCC(=O)O)C(=O)NC(CC(C)C)C(=O)NC(CC(C)C)C(=O)NC(C(C)C)C(=O)NC(CC(=O)O)C(=O)NC(CC(C)C)C(=O)NC(CC(C)C)C(=O)O1 (stereo not given) [Surfactin B1]", "TARGET_OF_ASSAY": "DLD1", "NUMERIC_READOUT": 0.92}
{"MOLECULE": "O=C1OC(=O)[C@H]2[C@@H]1[C@@H]1CC[C@H]2O1", "TARGET_OF_ASSAY": "DLD1", "NUMERIC_READOUT": 1.06}

Input CC(=O)OCC[N+](C)(C)C . Output TCF/Wnt firefly luciferase reporter signal: 1.01

Input Cc1ccc(C(=O)Nc2ccc(S(=O)(=O)O)c3cc(S(=O)(=O)O)cc(S(=O)(=O)O)c23)cc1NC(=O)c1cccc(NC(=O)Nc2cccc(C(=O)Nc3cc(C(=O)Nc4ccc(S(=O)(=O)O)c5cc(S(=O)(=O)O)cc(S(=O)(=O)O)c45)ccc3C)c2)c1 . Output TCF/Wnt firefly luciferase reporter signal: 0.936

Input COC(C)c1cccc2nc3c(C(=O)O)cccc3nc12 (stereo not given) [Saphenic acid methylether] . Output TCF/Wnt firefly luciferase reporter signal: 0.907

* * *

Test system: DLD1
ASSAY_METHOD_TEXT: cell viability (CellTiter-Glo) relative to plate median (fraction of plate median); higher = more viable cells
MEASUREMENT_CONTEXT: 5 µM; treatment time 24 h; reporter: 7TFP
PARAMETER: cell viability
Form field (numeric): enter value without unit.

Record excerpt, results attached:
{"MOLECULE": "O=C(O)c1cc2ccccc2[nH]1 [Indol-2-carboxylic acid]", "TARGET_OF_ASSAY": "DLD1", "NUMERIC_READOUT": 0.972}
{"MOLECULE": "CC1(C)C(=O)C=C[C@]2(C)[C@H]3CC[C@@]4(C)[C@H](c5ccoc5)OC(=O)[C@H]5O[C@]54[C@]3(C)C(=O)C[C@@H]12", "TARGET_OF_ASSAY": "DLD1", "NUMERIC_READOUT": 1.02}
{"MOLECULE": "Nc1ccc(S(=O)(=O)Nc2ccccn2)cc1", "TARGET_OF_ASSAY": "DLD1", "NUMERIC_READOUT": 0.971}

Kindly review the next molecule as well.
// molecule CCN1CCCC1CNC(=O)c1cc(S(N)(=O)=O)ccc1OC (centres undefined) , assay DLD1, cell viability value: 0.985

* * *

Tested on: DLD1
ASSAY_METHOD_TEXT: cell viability (CellTiter-Glo) relative to plate median (fraction of plate median); higher = more viable cells
MEASUREMENT_CONTEXT: 5 µM; treatment time 24 h; reporter: 7TFP
Recorded cell viability, one value per entry.
Form field (numeric): enter value without unit.

{"COMPOUND": "CN(C)CCN(Cc1cccs1)c1ccccn1", "NUMERIC_READOUT": 1.08}
{"COMPOUND": "OCCc1ccccc1", "NUMERIC_READOUT": 0.986}
{"COMPOUND": "Cc1ccc(C(=O)c2ccc(CC(=O)O)n2C)cc1", "NUMERIC_READOUT": 0.981}
{"COMPOUND": "COc1ccc2c(c1OC)C(=O)O[C@@H]2[C@H]1c2c(cc3c(c2OC)OCO3)CCN1C", "NUMERIC_READOUT": 0.99}
{"COMPOUND": "O=c1cc(-c2ccc(O)cc2)oc2cc(O[C@@H]3O[C@H](CO)[C@@H](O)[C@H](O)[C@H]3O[C@@H]3OC[C@](O)(CO)[C@H]3O)cc(O)c12", "NUMERIC_READOUT": 0.959}
{"COMPOUND": "CC(=O)Nc1ccc(OC(=O)c2ccccc2O)cc1", "NUMERIC_READOUT": 0.999}

// compound CN[C@@H]1[C@H](O)[C@H](NC)[C@H]2O[C@@]3(O)C(=O)C[C@@H](C)O[C@H]3O[C@@H]2[C@H]1O , assay DLD1, cell viability value: 1.04

// compound CCC(=O)OC1[C@@H]2CC3=C4CC(=O)O[C@@H](c5ccoc5)[C@]4(C)CCC3[C@@](C)(C2=O)[C@@H](CC(=O)OC)C1(C)C (stereo partly specified) , assay DLD1, cell viability value: 0.932

// compound C[C@@H]1CC[C@@]23CCC4(C)[C@@](C=CC5[C@@]6(C)CC[C@H](O)C(C)(C)C6CC[C@]54C)(OC2=O)C3[C@H]1C (stereo partly specified) , assay DLD1, cell viability value: 1.02

// compound Cc1c(NC(C)C)c(=O)n(-c2ccccc2)n1C , assay DLD1, cell viability value: 1.01

* * *

Tested on: SW480
ASSAY_METHOD_TEXT: cell viability (CellTiter-Glo) relative to plate median (fraction of plate median); higher = more viable cells
MEASUREMENT_CONTEXT: 5 µM; treatment time 24 h; reporter: 7TFP
PARAMETER: cell viability
Form field (numeric): enter value without unit.

{"COMPOUND_STRUCTURE": "O=c1c(O)c(-c2ccc(O)cc2)oc2ccccc12", "cell viability": 1.01}
{"COMPOUND_STRUCTURE": "C[n+]1cccc(C(=O)[O-])c1", "cell viability": 1.01}

Input CCCCCCCCCCCC[C@@H](C(=O)O)[C@H](C)C(=O)O . Output cell viability: 1

Input COc1cccc(/C=C/C(=O)O)c1C(C)C . Output cell viability: 1

Input CCCCCCCCCc1ccc(OCCOCCOCCOCCOCCOCCOCCOCCOCCO)cc1 . Output cell viability: 0.998

Input CCN(CC)CCNC(=O)c1cc(Br)c(N)cc1OC . Output cell viability: 1.02

* * *

Tested on: SW480
ASSAY_METHOD_TEXT: cell viability (CellTiter-Glo) relative to plate median (fraction of plate median); higher = more viable cells
MEASUREMENT_CONTEXT: 5 µM; treatment time 24 h; reporter: 7TFP
PARAMETER: cell viability
Form field (numeric): enter value without unit.

{"COMPOUND": "COc1cc2c(cc1-c1coc3c4c(c(OC)cc3c1=O)OC(C)(C)C=C4)OCO2", "TARGET_OF_ASSAY": "SW480", "PARAMETER": "cell viability", "NUMERIC_READOUT": 0.986}
{"COMPOUND": "CC(C)CCCC(C)C1CCC2C3=CCC4CC(O)CCC4(C)C3CCC21C (stereo not given)", "TARGET_OF_ASSAY": "SW480", "PARAMETER": "cell viability", "NUMERIC_READOUT": 1.02}
{"COMPOUND": "COc1ccc([C@@H]2Sc3ccccc3N(CCN(C)C)C(=O)[C@@H]2OC(C)=O)cc1", "TARGET_OF_ASSAY": "SW480", "PARAMETER": "cell viability", "NUMERIC_READOUT": 1.01}
{"COMPOUND": "CC(=O)O[C@H]1CC[C@]2(C)C(C[C@@H](OC(C)=O)[C@]3(C)C4=CC(=O)O[C@H](c5ccoc5)[C@@]4(C)CCC23)C1(C)C (stereo partly drawn) [3-DEOXO-3beta-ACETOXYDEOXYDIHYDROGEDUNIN]", "TARGET_OF_ASSAY": "SW480", "PARAMETER": "cell viability", "NUMERIC_READOUT": 0.982}

Kindly review the next compound as well.
Input CCCCC(=O)O[C@]1(C(=O)CO)[C@@H](C)C[C@H]2[C@@H]3CCC4=CC(=O)C=C[C@]4(C)[C@@]3(F)[C@@H](O)C[C@@]21C . Output cell viability: 0.987
